Please respond with reported Activity for every item in the list.
EXPERIMENTAL_SYSTEM: GABA-A receptor; alpha-1/beta-2/gamma-2 (Homo sapiens) (UniProt P14867+P47870+P18507)
TEST: In vitro efficacy for GABA-A alpha-1-beta-2-gamma-2 subtype expressed in A293 cells in Cl- current assay
Type: functional, cell-based
COND: Rattus norvegicus; HEK293

Some compounds with recorded Activity:
COMPOUND	EXPERIMENTAL_SYSTEM	MEASUREMENT_NAME	VALUE
CN1Cc2cccc3c2N(Cc2c(-c4noc(C5CC5)n4)ncn2-3)C1=O	GABA-A receptor; alpha-1/beta-2/gamma-2 (Homo sapiens) (UniProt P14867+P47870+P18507)	Activity	0.5
CN(C)C(=O)N1Cc2c(-c3noc(C4CC4)n3)ncn2-c2ccccc21 [PNU-91571]	GABA-A receptor; alpha-1/beta-2/gamma-2 (Homo sapiens) (UniProt P14867+P47870+P18507)	Activity	0.68

Query compound follows.
Task item: Looking for the measured Activity of `COn1c(=O)n2c3c(cccc31)-n1cnc(-c3noc(C4CC4)n3)c1C2` , can you help?
Reply: 0.73
